Where these numbers come from: patent US20250368745A1

Provide the recorded pKd for the entries that follow.
Biological target: T1, human IL-18BP (human, UniProt O95998 31-194)
T1 construct: UniProt printed as 095998; also called hIL-18BP
T1 sequence: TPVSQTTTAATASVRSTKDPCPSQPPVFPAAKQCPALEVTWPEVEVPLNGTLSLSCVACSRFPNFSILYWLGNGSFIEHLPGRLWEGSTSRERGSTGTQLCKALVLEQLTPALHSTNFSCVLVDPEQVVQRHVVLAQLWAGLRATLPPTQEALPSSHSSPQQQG
Assay: BLI, apparent KD
One number for each entry, as −log10 of the molar value.

SA301a LC-Q89N (antibody, V domains shown) VH: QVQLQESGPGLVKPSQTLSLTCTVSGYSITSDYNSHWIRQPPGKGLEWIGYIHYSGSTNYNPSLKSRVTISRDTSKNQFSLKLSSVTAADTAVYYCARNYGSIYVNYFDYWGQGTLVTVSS VL: EIVLTQSPATLSLSPGERATLSCSASSSVSYMYWYQQKPGQAPRPLIYRTSNLASGIPARFSGSGSGTDFTLTISSLEPEDFAVYYCNQYHSYPTFGGGTKVEIK    9.55

For the 2 binders below, give their pKd values.
1. SA301a LC-Y91S (antibody, name in Kabat numbering, V domains shown, IgG1 kappa) VH: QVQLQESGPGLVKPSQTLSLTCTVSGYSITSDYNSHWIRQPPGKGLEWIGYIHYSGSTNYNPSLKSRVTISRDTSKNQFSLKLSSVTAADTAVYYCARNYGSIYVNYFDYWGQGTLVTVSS VL: EIVLTQSPATLSLSPGERATLSCSASSSVSYMYWYQQKPGQAPRPLIYRTSNLASGIPARFSGSGSGTDFTLTISSLEPEDFAVYYCQQSHSYPTFGGGTKVEIK
2. SA301a LC-H92V (antibody, V domains shown) VH: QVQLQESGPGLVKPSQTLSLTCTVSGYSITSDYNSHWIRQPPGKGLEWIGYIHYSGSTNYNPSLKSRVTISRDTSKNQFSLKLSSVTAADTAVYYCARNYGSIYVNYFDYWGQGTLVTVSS VL: EIVLTQSPATLSLSPGERATLSCSASSSVSYMYWYQQKPGQAPRPLIYRTSNLASGIPARFSGSGSGTDFTLTISSLEPEDFAVYYCQQYVSYPTFGGGTKVEIK

Reply |
9.48
9.70
